Attribution: ChEMBL document CHEMBL1142097

- METHOD_NOTES: Antimycobacterial activity against Mycobacterium bovis BCG str. Pasteur 1173P2 overexpressing ethA gene
- Assay type: functional
- ASSAY_SETUP: Mycobacterium tuberculosis variant bovis BCG
REPORTED_ENDPOINT: MIC
Write the numeric value and append its unit.

Example compounds with recorded MIC:
# COMPOUND, MIC
rows = [
    ("COc1ccc(/C(C)=N/NC(N)=S)cc1", "0.25 µg/mL"),
    ("CCc1cc(C(N)=S)ccn1 [ETHIONAMIDE]", "0.25 µg/mL"),
]

Ask | # lookup: MIC of CC(C)CCOc1ccc(NC(=S)Nc2ccc(OCCC(C)C)cc2)cc1 [TIOCARLIDE]
Reply | 0.1 µg/mL

Ask | Returns the measured MIC for the input compound. Input: CC(C)CCSc1ccc(NC(=S)Nc2ccc(SCCC(C)C)cc2)cc1
Reply | 5 µg/mL

Ask | Entry CC(=O)Nc1ccc(/C=N/NC(N)=S)cc1 has what MIC?
Reply | 0.25 µg/mL

Ask | Field request: MIC | item: NC(=S)N/N=C/c1cccnc1
Reply | 10 µg/mL
